The following binders are listed with their measured IC50 values.
Molecular target: human Y4 receptor (human, UniProt P50391 1-375)
Sequence (P50391 whole entry): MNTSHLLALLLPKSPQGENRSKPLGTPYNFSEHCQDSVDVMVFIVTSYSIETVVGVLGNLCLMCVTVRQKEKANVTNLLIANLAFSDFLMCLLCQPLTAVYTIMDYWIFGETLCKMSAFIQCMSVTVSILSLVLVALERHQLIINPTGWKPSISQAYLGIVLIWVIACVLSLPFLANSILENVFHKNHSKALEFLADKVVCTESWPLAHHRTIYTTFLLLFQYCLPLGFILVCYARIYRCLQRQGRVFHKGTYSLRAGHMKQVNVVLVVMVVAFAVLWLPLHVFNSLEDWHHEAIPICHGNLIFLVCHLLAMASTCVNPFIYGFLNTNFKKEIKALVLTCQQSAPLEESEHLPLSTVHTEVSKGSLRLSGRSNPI
Assay: 125I-PP displacement
Numeric answer only, unit nM assumed.

The following binders have reported results that may help.
YAPLEPHYPGDDATPQQMARYAAELRRYINKLTRPRY [4058054]    0.137
APLEPHYPGDNATPEQMAKYAAALRRYINKLTRPRY [4057754]    0.156
APLEPHYPGDNATPEQLAKYAADLRRYINKLTRPRY [4057751]    0.065
PAPLEPSYPGDNATPEQMAKYAAALRRYINLLTRPRY [4058052]    0.085
PLEPHYPGDNATPEQLAKYAADLRRYINKLTRPRY [4057893]    0.144

Asked: Identify measured IC50 corresponding to PAPLEPHYPGDNATPEQLAKYAADLRRYINKLTRPRY [4057753]
Given back: 0.07

Recorded values, source patent US20100279930A1.
